The entries below come with measured CAA/HuS MIC values attached.
system: P. aeruginosa; assay: MIC, modified CLSI broth microdilution in CAA medium without or with […] human serum (Table 4); type: cell-based, Pseudomonas aeruginosa; conditions: CAA supplemented with […] human serum; also: CAA supplemented with 2.5% human serum
Lab book: enter the figure in mg/L, no units written.

In the examples that follow, each entry is paired with its recorded CAA/HuS MIC.
[[record]]
molecule = "GN217: GN37 lysin with amino acid substitution R79H (SEQ ID NO: 8) (protein) MTYTLSKRSLDNLKGVHPDLVAVVHRAIQLTPVDFAVIEGLRSVSRQKELVAAGASKTMNSRHLTGHAVDLAAYVNGIHWDWPLYDAIAVAVKAAAKELGVAIVWGGDWTTFKDGPHFELDRSKYR"
measured_result = 125

[[record]]
molecule = "GN333: lysin obtained from Delftia sp. (SEQ ID NO: 28) (protein, listed as Delftia sp.) MALTEQDFQSAADDLGVDVASVKAVTKVESRGSGFLLSGVPKILFERHWMFKLLKRKLGRDPEINDVCNPKAGGYLGGQAEHERLDKAVKMDRDCALQSASWGLFQIMGFHWEALGYASVQAFVNAQYASEGSQLNTFVRFIKTNPAIHKALKSKDWAEFARRYNGPDYKKNNYDVKLAEAYQSFK"
measured_result = 60


Lookup: May I ask what CAA/HuS MIC has been recorded for GN329: lysin, SEQ ID NO: 26 (protein, Pseudomonas phage KPP10) MITDREYQQAAEMLGVDVPAIKAVTKVEAPVGGFQPTGEPTILYERHQMYRQLQAKGLPTEGHPPDLVNKVAGGYGKYSEQHAKLARAVKIDRDSALESCSWGMFQIMGYHWKLMGYPTLQAFVNAMYASEGAQMDAFCRFIKAQPTTHAALKAHDWAKFARLYNGPGYAKNKYDVKLEKAYAEASG ?
Found: 250

Lookup: // query: GN431: lysin obtained from Dickeya phage phiD3 (SEQ ID NO: 64) (protein, Dickeya phage phiD3) MAILKLGNRGTEVKALQDSLNKIGFTLVADGIFGKATENAVKTVQAGAGLVIDGIVGPKTSYAIRNAGEAHQDHLTEADLIEAANQLGVDLASVKAVNQVESRGTGFTKSGKIKTLFERHIMYKKLMAKFGQARANAMGQMYPTLVSPVAGGYTGGDAELDRLHAAINIDEDCAYESASYGLFQIMGFNCQVCGYANAKEMFNDFLTGERAHLMAFVKFIKADAKLWQALKDKNWAEFARRYNGPAYTKNQYDTKLAAAYNSFN
Found: 62.5
